Origin of measurements: patent US10041937B2

// reported Peak position of M1 macrophage for each item listed
system: M1 macrophages and M2 macrophages differentiated from mouse bone marrow cells; test: Subtype identification by staining and flow cytometry of M1 and M2 macrophages differentiated from mouse bone marrow cells; assay type: cell-based, Balb/c mouse; conditions: fluorescence intensity at peak top of histogram; compound 1 μM, 37° C., 30 minutes
Respond numerically, and do not add a unit to the figure.

Please review the entries below; each comes with its answer.
• O=C(O)CCN1C(=O)/C(=C\c2ccc3c(c2)C2CCCC2N3c2ccccc2)SC1=S (stereo not shown) [(13)] = 7.74
• O=C(O)CCN1C(=O)/C(=C\c2cc(Br)c3c(c2)C2CCCC2N3c2ccc(Br)cc2)SC1=S (stereo not shown) [(11)] = 30.5
• O=C(O)Cn1c(=O)/c(=C\c2ccc3c(c2)C2CCCC2N3c2ccc(C=C(c3ccccc3)c3ccccc3)cc2)s/c1=C1/CC(=S)N(Cc2ccccc2)C1=O (stereo not shown) [(20)] = 4.47
• CSc1ccc(N2c3ccc(/C=C4/SC(=S)N(CCC(=O)O)C4=O)cc3C3CCCC32)cc1 (stereo not shown) [(6)] = 26.5
• O=C(O)CN1C(=O)/C(=C\c2cc(Br)c3c(c2)C2CCCC2N3c2ccc(Br)cc2)SC1=S (stereo not shown) [(12)] = 50.7

**Query** Looking for the measured Peak position of M1 macrophage of CSc1ccc(N2c3ccc(/C=C4/SC(=S)N(CC(=O)O)C4=O)cc3C3CCCC32)cc1 (stereo not shown) [(30)] , can you help?
**Result** 55.1

**Query** Same thing, different molecule: CCN1C(=O)S/C(=c2/s/c(=C/c3ccc4c(c3)C3CCCC3N4c3ccc(OC)cc3)c(=O)n2CC(=O)O)C1=O (stereo not shown) [(44)]
**Result** 24.5

**Query** Same thing, different molecule: COc1ccc(N2c3ccc(/C=C/C4=[N+](C)c5ccccc5C4(C)C)cc3C3CCCC32)cc1 (stereo not shown) [(62)]
**Result** 193

**Query** Same thing, different molecule: C=CCN1C(=O)/C(=c2\s/c(=C/c3ccc4c(c3)C3CCCC3N4Cc3ccccc3)c(=O)n2CC(=O)OCC)SC1=S (stereo not shown) [(52)]
**Result** 3.90
